The measurements presented in this section are drawn from patent US6413960B1.

# tgt: Human COX I (Homo sapiens, UniProt P23219)
# Construct: A 2.0 kb fragment containing the coding region of either human or murine COX-I or human or murine COX-II; made in house; host or cells: SF9 insect cells (baculovirus, transfer vector pVL1393)
# Sequence (P23219 24-599): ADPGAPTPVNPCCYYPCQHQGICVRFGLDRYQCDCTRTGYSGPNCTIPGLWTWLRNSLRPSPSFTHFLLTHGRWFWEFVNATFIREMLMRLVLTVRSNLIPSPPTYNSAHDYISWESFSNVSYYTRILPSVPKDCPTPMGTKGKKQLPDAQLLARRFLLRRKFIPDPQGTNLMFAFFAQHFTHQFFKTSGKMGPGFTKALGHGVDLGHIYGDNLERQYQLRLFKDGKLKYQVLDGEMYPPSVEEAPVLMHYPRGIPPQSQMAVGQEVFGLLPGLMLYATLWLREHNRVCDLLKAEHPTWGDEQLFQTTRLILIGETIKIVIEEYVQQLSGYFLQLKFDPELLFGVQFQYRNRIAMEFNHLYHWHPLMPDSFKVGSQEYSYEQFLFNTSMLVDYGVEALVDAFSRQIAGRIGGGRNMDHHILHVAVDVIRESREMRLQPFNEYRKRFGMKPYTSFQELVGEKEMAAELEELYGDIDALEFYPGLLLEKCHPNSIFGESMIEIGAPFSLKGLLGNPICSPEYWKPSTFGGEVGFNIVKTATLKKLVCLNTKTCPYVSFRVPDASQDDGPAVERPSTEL
# method-summary: Assay for COX I activity in vitro (PGE2 ELISA, recombinant enzyme)
# Format: biochemical
pIC50: −log10 of the molar value.
endpoint-label: pIC50

>>> numeric_value("C=CCc1cc(-c2cc(C(F)(F)F)nn2-c2ccc(S(N)(=O)=O)cc2)ccc1OC")
4.10

====

# tgt: Human COX II (Homo sapiens, UniProt P35354)
# Construct: A 2.0 kb fragment containing the coding region of either human or murine COX-I or human or murine COX-II; made in house; host or cells: SF9 insect cells (baculovirus, transfer vector pVL1393)
# Sequence (P35354 18-604): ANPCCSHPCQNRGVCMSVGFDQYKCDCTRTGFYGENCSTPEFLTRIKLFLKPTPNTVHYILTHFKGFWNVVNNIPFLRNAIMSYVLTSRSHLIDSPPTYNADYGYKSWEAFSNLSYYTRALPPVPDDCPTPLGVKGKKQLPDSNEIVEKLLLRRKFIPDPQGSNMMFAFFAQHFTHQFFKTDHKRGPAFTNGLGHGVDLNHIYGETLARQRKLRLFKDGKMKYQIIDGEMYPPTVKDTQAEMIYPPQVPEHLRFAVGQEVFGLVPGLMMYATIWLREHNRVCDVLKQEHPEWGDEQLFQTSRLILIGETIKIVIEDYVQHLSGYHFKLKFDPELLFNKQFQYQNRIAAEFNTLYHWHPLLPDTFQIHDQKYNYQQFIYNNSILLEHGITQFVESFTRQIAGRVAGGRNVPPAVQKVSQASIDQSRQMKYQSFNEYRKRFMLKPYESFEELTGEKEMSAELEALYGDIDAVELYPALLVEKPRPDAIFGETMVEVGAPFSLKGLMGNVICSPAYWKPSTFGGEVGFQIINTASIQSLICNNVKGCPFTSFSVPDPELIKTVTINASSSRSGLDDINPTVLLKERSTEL
# method-summary: Assay for COX II activity in vitro (PGE2 ELISA, recombinant enzyme)
# Type: biochemical
# assay-conditions: recombinant human COX II, arachidonic acid 10 μM, PGE2 ELISA; read-out: Human COX II ID50
pIC50: −log10 of the molar value.
endpoint-label: pIC50

>>> result("CC(C)Cc1nn(-c2ccc(S(N)(=O)=O)cc2)c(-c2ccccc2)c1Cl [Example 205]")
"> 7.00"

====

endpoint-label: melting point

>>> result("NS(=O)(=O)c1ccc(-n2ncc(Cl)c2-c2ccc(Cl)cc2)cc1")
"168 to 171 °C (dec.)"
>>> result("NS(=O)(=O)c1ccc(-n2nc(C(F)F)cc2-c2cnccn2)cc1")
"191 to 194 °C"
>>> result("NS(=O)(=O)c1ccc(-n2nc(C=NOCc3ccccc3)cc2-c2ccc(Cl)cc2)cc1")
"158 to 159 °C"
>>> result("NS(=O)(=O)c1ccc(-n2nc(CCC(=O)O)cc2-c2ccc(F)cc2)cc1")
"180 to 182 °C"
>>> result("Cc1ccc2c(c1)CCc1c(C(F)(F)F)nn(-c3ccc(S(N)(=O)=O)cc3)c1-2")
"215 to 218 °C"
>>> result("NS(=O)(=O)c1ccc(-n2nc(C(F)(F)Cl)cc2-c2ccc(Cl)cc2)cc1")
"130 to 133 °C"
>>> result("NS(=O)(=O)c1ccc(-n2nc(C(F)(F)F)c(C3CC3)c2-c2ccccc2)cc1")
"173 to 174 °C"
>>> result("Cc1c(C(F)(F)F)nn(-c2ccc(S(N)(=O)=O)cc2)c1-c1ccccc1")
"145 to 146 °C"

====

# tgt: Human COX II (Homo sapiens, UniProt P35354)
# Construct: A 2.0 kb fragment containing the coding region of either human or murine COX-I or human or murine COX-II; made in house; host or cells: SF9 insect cells (baculovirus, transfer vector pVL1393)
# method-summary: Assay for COX II activity in vitro (PGE2 ELISA, recombinant enzyme)
# Type: biochemical
# assay-conditions: read-out: Human COX II ID50
Listed next: entries and their corresponding IC50.
endpoint-label: IC50 (µM)

>>> numeric_value("COc1ccc(-c2cc(C(F)(F)F)nn2-c2ccc(S(N)(=O)=O)cc2)cc1CC1CC1")
37.7
>>> numeric_value("NS(=O)(=O)c1ccc(-n2nc(CCCO)cc2-c2ccc(F)cc2)cc1")
4.7
>>> numeric_value("NC(=O)c1cc(-c2ccc(Cl)cc2)n(-c2ccc(S(N)(=O)=O)cc2)n1")
6.5
>>> numeric_value("Cc1c(-c2cc(C(F)(F)F)nn2-c2ccc(S(N)(=O)=O)cc2)ccc2c1OCO2")
0.6
>>> numeric_value("CCCc1cc(-c2cc(C(F)(F)F)nn2-c2ccc(S(N)(=O)=O)cc2)ccc1OC")
14

====

# tgt: Human COX II (Homo sapiens, UniProt P35354)
# Construct: A 2.0 kb fragment containing the coding region of either human or murine COX-I or human or murine COX-II; made in house; host or cells: SF9 insect cells (baculovirus, transfer vector pVL1393)
# method-summary: Assay for COX II activity in vitro (PGE2 ELISA, recombinant enzyme)
# Assay type: biochemical
# assay-conditions: read-out: Human COX II ID50
pIC50: −log10 of the molar value.
Listed next: entries and their corresponding pIC50.
endpoint-label: pIC50

>>> result("NS(=O)(=O)c1ccc(-n2nc(C(F)(F)Cl)cc2-c2ccc(Cl)cc2)cc1")
"> 7.00"
>>> result("COC(=O)c1cc(-c2cc(F)c(OC)c(F)c2)n(-c2ccc(S(N)(=O)=O)cc2)n1")
"> 7.00"
>>> result("CCc1c(C(F)(F)F)nn(-c2ccc(S(N)(=O)=O)cc2)c1-c1ccc(OC)c(C)c1")
"> 7.00"
